Biological target: T1, human IL-4 (human, UniProt P05112 25-153)
T1 sequence (looked up): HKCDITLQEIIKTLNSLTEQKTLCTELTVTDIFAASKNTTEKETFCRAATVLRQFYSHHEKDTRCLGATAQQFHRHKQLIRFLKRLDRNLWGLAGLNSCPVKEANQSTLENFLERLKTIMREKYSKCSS
Assay: cell-based or functional assay
OBSERVED PROPERTY: CD23 IC50 [pM] (pM)
Give bare numbers, in pM.

IL4-0157 (antibody, IgG1, V domains shown) VH: EVTLRESGPALVKPTQTLTLTCTFSGFSLSNFGEGLSWIRQPPGKGLEWLAHIYWDDDKRYSTSLKTRLTISKDTSRNQVVLTMTNMDPVDTATYYCARRETVFYWYFDVWGQGTTVTVSS VL: DIQMTQSPSSLSASVGDRVTITCRASQSVDEEGDSYMNWYQQKPGKAPKLLIYAASNLESGVPSRFSGSGSGTDFTLTISSLQPEDFATYYCQQSHKDPPTFGGGTKVEIK = 9.3

Parameters: items (list). Returns: CD23 IC50 [pM] for each item.
1. IL4-0037 (antibody, IgG1, V domains shown) VH: EVTLRESGPALVKPTQTLTLTCTFSGFSLSNFGEGLSWIRQPPGKGLEWLAHIYWDDDKRYSTSLKTRLTISKDTSRNQVVLTMTNMDPVDTATYYCARRETVFYWYFDVWGQGTTVTVSS VL: DIQMTQSPSSLSASVGDRVTITCKASQSVDEDGDSYMNWYQQKPGKAPKLLIYAASNLESGVPSRFSGSGSGTDFTLTISSLQPEDFATYYCQQSNEDPPTFGGGTKVEIK
2. IL4-0749 (antibody, human IgG1, kappa, V domains shown) VH: EVTLRESGPALVKPTQTLTLTCTFSGFSLSNFGEGLSWIRQPPGKGLEWLAHIYWDDDKRYNPSLKSRLTISKDTSRNQVVLTMTNMDPVDTATYYCARRETVFYWYFDVWGQGTTVTVSS VL: DIQMTQSPSSLSASVGDRVTITCRASQSVDEEGDSYMNWYQQKPGKAPKLLIYAASNLESGVPSRFSGSGSGTDFTLTISSLQPEDFATYYCQQSNEDPPTFGGGTKVEIKR
3. IL4-1040 (antibody, human IgG1, kappa, V domains shown) VH: EVTLRESGPALVKPTQTLTLTCTFSGFSLSNFGEGLSWIRQPPGKGLEWLAHIYWDDDKRYNPSLKSRLTISKDTSRNQVVLTMTNMDPVDTATYYCARRETVFYWYFDVWGQGTTVTVSS VL: DIQMTQSPSSLSASVGDRVTITCRASQSVDEEGDSYMNWYQQKPGKAPKLLIYAASNLESGVPSRFSGSGSGTDFTLTISSLQPEDFATYYCQQSNKDPPTFGGGTKVEIKR

[1.6, 2.4, 3.2]
